- Test system: MS2 coat protein
- test.protocol: apparent KD of MS2 coat protein; designed switch direction (-1 OFF switch, 1 ON switch): 1; higher = weaker reporter binding
- stated.conditions: Eterna round: R95; input ligand: none
Classification field: 1 = apparent KD of MS2 coat protein at or over 200 nM; 0 = apparent KD of MS2 coat protein under 200 nM.

• AACAAUCUAUCUGAGGAUAUCAUGAAAUAAACAUGAGGAUCACCCAUGUGCAGGAAAACUGCAUAUGAGAAGGCAUAUAGAUUGA [salish99_ss2_r3_052] (puzzle: Same State 2) = 1
• GGAGAACAUGAGGAUCACCCAUGUGGAUGGGCGCUAGGAUAUGCGAGAGGGUGAAGAGAAGCAGAAGGAGUGGAUA [JR_SS1_Sub036] (puzzle: Same State 1) = 0
• GUGUGUUGCGGGCAGGAUAUGUACUUGAGUACAUGAGGAUCACCCAUGUGCGGGUGUUUCACCCGACAGAAGGGCCUAUCGCGAC [JL-ss2-3.25 ViennaUCT mod] (puzzle: Same State 2) = 1
• CGUUCAUACUCAGGACGGAGAGUAGAGGAACAUGAGGAUCACCCAUGUAUGAGCUUUUUGCUCGUCAUGAACAGGAG [JR_SHM208a_Sub011] (puzzle: Sensor for hsa-mir-208a) = 0
• GAGGAACAUGAGGAUCACCCAUGUAGGAUGGGACAAGGAUAUGUAGAUAGCGGAGGAGAGACAGAAGGUGUAGGAA [JR_SS1_Sub053] (puzzle: Same State 1) = 1
• UGUUAACAUGAGGAUCACCCAUGUCAAAUGAAGCGAGGAUAUGGAAAGUAAUAAGAUGAACUAGAAGGUGUAGAUG [Altered State 1-21 - Jieux - Same State 1] (puzzle: Same State 1) = 0
• AACAAUCUAUCUGAGGAUAUCAUGAAAUAAACAUGAGGAUCACCCAUGUGCAGGAAAAUUGCAUAUGAGAAGGCAGAUAGAUUGA [salish99_ss2_r3_044] (puzzle: Same State 2) = 1
• AGUAGGGCGUCAUAGGAUAUCCGGAAGAGUACAUGAGGAUCACCCAUGUCACUCCGCCAUGCAGAGGAGAAGGGUGGUGUUGUAC [Biedzage] (puzzle: Same State 2) = 0
• UUUAGUUGCGGGCAGGAUAUGUAUUAAAAUACAUGAGGAUCACCCAUGUGAGAUCGAAAAGAUCUACAGAAGGGCCAAUCGCGAC [Laonerce - 24] (puzzle: Same State 2) = 0
